B1: TRIM63 (parent)
chain: QRITQEQEKKLSFIEALIQQYQEQ

- Variants of: B1
- PROCEDURE_DETAILS: protein stability index of a GFP-peptide fusion (GPS, HEK-293T) (PSI 1-6); higher = more stable;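 note: lentivirally expressed fusions sorted by FACS into six bins by GFP to DsRed ratio, PSI derived from sequencing read proportions per bin multiplied by bin number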
- CONDITION_INFO: c terminus: a fixed tail appended
RECORDED_METRIC: protein stability index
Quick one: just the number, no unit, thanks!

Recorded protein stability index of QRITQEQEKKLSFIEALIQQYQES [Q24S] , please.
1.98

Further cases:
Recorded protein stability index of QRITQEQAKKLSFIEALIQQYQEQ [E8A] , please.
2.18

Recorded protein stability index of QRITQEQEKKLTFIEALIQQYQEQ [S12T] , please.
3.23

Recorded protein stability index of QRITNEQEKKLSFIEALIQQYQEQ [Q5N] , please.
2.32

Recorded protein stability index of QRITQEQEKKLSFIEALIQQEQEQ [Y21E] , please.
2.11

Recorded protein stability index of QRITQDQEKKLSFIEALIQQYQEQ [E6D] , please.
2.12

Recorded protein stability index of FRITQEQEKKLSFIEALIQQYQEQ [Q1F] , please.
2.91

Recorded protein stability index of QRITQEQEEKLSFIEALIQQYQEQ [K9E] , please.
3.27

Recorded protein stability index of QRITQEQEKKLSFIEALIQQYQYQ [E23Y] , please.
1.99

Recorded protein stability index of QRHTQEQEKKLSFIEALIQQYQEQ [I3H] , please.
2.54
